Test system: THRa homodimer (NR concentration 90 nM)
experiment: PBM binding z-score (relative to random genomic background probes); higher = stronger binding; sequences stand for … in GC…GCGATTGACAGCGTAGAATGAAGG
measurement label: PBM binding z-score
Answer as a number with no unit attached.

[ask] Item under review: "AGAATGAGGTTATTAAGATCCGGGAATTGCGGTC" . Reported PBM binding z-score?
[reply] 0.695

[ask] Consider the sequence shown here: "CTCGAAAGGTCGTGCTCAGGAGAGTATACCAAAC" What is its recorded PBM binding z-score?
[reply] 0.423

[ask] Sample "CCTCGGAGGACAACAGGAGGTCCGAGCTGCCAGA" — what was its PBM binding z-score?
[reply] -0.324

[ask] Form field: reported PBM binding z-score of "ATAATGAGGTTAAGATCAGGGAAACAGAATACAT"
[reply] 1.02

[ask] Entry under review: "CAAACTAGGTCACGAAAGGTCTAAGTCGAATGAC" . Reported PBM binding z-score?
[reply] 1.73

[ask] Need PBM binding z-score, item "TCTAGTTGGTCAGGGAGGTCACACACGACGGGTA"
[reply] 2.88
